- method.summary: Human HepG2 cell viability assay in 384 well format
- Assay type: toxicity, cell-based
- Parameters: dose 125 nL, time 70.5 hour; concentration not given beside the values
- study.conditions: HepG2 cells, read-out: Inhibition
assay.readout: cytotoxicity at 70.5 h (%)

• Cc1nnc(CN(C)CC2(O)CCCN(CCC3CCCCC3)C2=O)o1 (centres undefined) = 2.51
• Clc1cc(CN2CCCC2Cn2cncn2)c2ncccc2c1 (centres undefined) = -20.8
• CN(C)S(=O)(=O)N1CC[C@]2(C[C@@H](OCc3ccccn3)CO2)C1 = -1.04
• CCN(Cc1ccc2cccc(O)c2n1)CC1CCCO1 (centres undefined) = 12.5
• CC(C)c1nc(C2CCCN2CC(=O)N2CCc3ccccc32)no1 (centres undefined) = -3.85
• Cc1c(C2CC(=O)Nc3c2cnn3C(C)C)cnn1C (centres undefined) = -10.4
• O=C(NCCc1ccccn1)NC1CCN(c2ncccn2)CC1 = -8
• O=C1[C@H]2CN(c3ncccn3)C[C@H]2CN1CCN1CCCC1 = -47.2
• CCC(=O)NC1CCN(c2cccc(OC(F)(F)F)c2)C1=O (centres undefined) = -2.63

###

cytotoxicity at 70.5 h values, listed per item
- method.summary: Human HepG2 cell viability assay in 384 well format
- Type: toxicity, cell-based
- Set-up: dose 125 nL, time 70.5 hour; concentration not given beside the values
- study.conditions: HepG2 cells, read-out: Inhibition
assay.readout: cytotoxicity at 70.5 h (%)

• CN(C)S(=O)(=O)NCC1(c2ccccc2Br)CC1 = 13.4
• NC(=O)N1CCC2(CC1)CN(c1ccsc1)C(=O)CO2 = 17.7
• CCOCC(=O)N1C[C@@H]2COC[C@H](c3nc(C)no3)[C@@H]2C1 = -2.34

###

- method.summary: Human HepG2 cell viability assay in 384 well format
- Assay type: toxicity, cell-based
- Design: dose 125 nL, time 70.5 hour; concentration not given beside the values
- study.conditions: HepG2 cells, read-out: Inhibition
assay.readout: cytotoxicity at 70.5 h

* COc1ccccc1CNC(C)c1cnc2cc(C)nn2c1C (configuration not stated) | -1.5%
* CC(C)c1nc2n(n1)CC(NCC(=O)NCCC1=CCCCC1)CC2 (configuration not stated) | -0.816%
* Cc1noc(CS(=O)(=O)C/C=C/c2ccccc2)n1 | -19.1%
* O=C(NCc1cccs1)[C@@H]1CC[C@@H]2[C@@H](CCN2c2ncccn2)O1 | -19.1%
* COCC(=O)N1CCC(=O)N(C2CCCC2)Cc2ccccc21 | 6.82%
* O=C(Nc1ccccn1)N(CCO)Cc1ccsc1 | 4.99%
* CCN1CCCC(CNC(=O)C2(c3cccc(Cl)c3)CC2)C1 (configuration not stated) | -0.608%
* CS(=O)(=O)N1CCCC(Cc2cncc(Br)c2)CC1 (configuration not stated) | -2.69%
* Cc1cc(CN(Cc2ccccc2)C(C)CN2CCOCC2)no1 (configuration not stated) | -5.58%
* CC(C)CC(O)C1CCN(C(=O)c2ccc(C(F)(F)F)nc2O)CC1 (configuration not stated) | -5.89%
* Cc1cccc2c(CCNC(=O)NCC[S+](C)[O-])c[nH]c12 (configuration not stated) | 0.892%
* OCCc1cc(CC2(NCc3ccncc3)COC2)no1 | -4.15%

###

- method.summary: Human HepG2 cell viability assay in 384 well format
- Format: toxicity, cell-based
- Set-up: dose 125 nL, time 70.5 hour; concentration not given beside the values
- study.conditions: HepG2 cells, read-out: Inhibition
assay.readout: cytotoxicity at 70.5 h (%)

• COc1ccc(CC(=O)N2CCC[C@@H](N)[C@@H]2c2ccccc2F)cc1 = -0.222
• CCOc1ccc(NC(=O)NCc2csc(NC)n2)cc1C = -5.86
• COc1cccc(CCC(=O)N2CCN(Cc3noc(C)n3)CC2)c1 = -0.347
• O=c1c(CN2CCCCCC2)coc(O)c1CN1CCCCCC1 = -4.84

###

- method.summary: Human HepG2 cell viability assay in 384 well format
- Assay type: toxicity, cell-based
- Parameters: dose 125 nL, time 70.5 hour; concentration not given beside the values
- study.conditions: HepG2 cells, read-out: Inhibition
assay.readout: cytotoxicity at 70.5 h (%)

• c1cnc(N2CCC3(CCN(Cc4cccnc4)CC3)CC2)nc1 = -8.42
• O=C1CCC(C(=O)N2CCC(Cn3cc(C4CCCC4)nn3)CC2)=NN1 = -2.69
• c1nc2c(c(NCCCn3cncn3)n1)CCN(CC1CCOC1)CC2 (stereo not drawn) = -2.03
• CN1[C@H]2CC[C@@H]1CN(C(=O)c1nnc3n1CCCCC3)CC2 = -9.52
• Cc1cnn(CC2CCCN2C(=O)CCc2ccncc2)c1 (stereo not drawn) = -1.24
• CN1CCOC(CNCC(=O)NCCc2ccc(F)cc2)C1 (stereo not drawn) = -3.15
• Cc1cccc(N2CCOCC3(C2)CN(c2cccnc2)C(=O)CO3)n1 (stereo not drawn) = -4.82
• CC(O)CN1CCC(CN(C)Cc2ccc(C#N)cc2F)CC1 (stereo not drawn) = 6.92
• c1coc(CN2CCc3onc(Cn4ccnc4)c3C2)c1 = -2.36
• CCn1nnc2c1C(COC)CN(C(=O)Cc1ccccn1)C2 (stereo not drawn) = -15.3
• CC(C(=O)N(C)C)N1CCCN(C(=O)Oc2ccccc2)CC1 (stereo not drawn) = -9.71
• CNC(=O)[C@H]1C[C@@H]2CN(C(=O)c3ccsc3)C[C@@H]2N1S(C)(=O)=O = -10.8
• Cc1noc(CN2CCN(CC(C)O)CC2)n1 (stereo not drawn) = 2.13
• Cc1ccc(OCCCC(=O)NC(C)c2ccc(S(N)(=O)=O)cc2)cc1 (stereo not drawn) = 34.1
• NC(=O)CN1CC2(CCC1=O)CCN(Cc1cc(F)cc(F)c1)CC2 = -0.945
• O=C1NCCN2CCN(Cc3ccc(Cl)c(Cl)c3)CC12 (stereo not drawn) = -8.1
• CCC(C)(C)NC(=O)Nc1nnc(-c2ccccn2)s1 = -10.1
• COc1ccc(CNC(=O)CCc2c(C)noc2C)cc1F = -12.8
• CCn1nc(C)c(C(=O)Nc2ccc3c(c2)C(C)(C)C(=O)N3C)c1C = -0.0352
• Oc1cccc(CNCC2CCCO2)c1 (stereo not drawn) = 10.4
• Cc1ccc(-c2cc(N)c(=O)n(C(C)C(N)=O)n2)o1 (stereo not drawn) = -5.11
• Cc1cc(C[C@@H]2CCC[C@H]2NCc2cc(C)c(O)c(C)c2)on1 = 2.36
• CNC(=O)C1(Cc2cc(C(C)C)no2)CCN(Cc2ccccn2)C1 (stereo not drawn) = -0.0563
• CCS(=O)(=O)N1CC(=O)N(Cc2ccccc2OC)CC(O)C1 (stereo not drawn) = 17.6
• COc1cccc(Nc2nc(C3CCNCC3)c3ccccn23)c1 = -2.27
• CC(CN1CCOCC1)NC(=O)N1CCN(S(C)(=O)=O)CC1 (stereo not drawn) = 27.9
• CC(CNC(=O)OC(C)(C)C)N(C)C(=O)COc1ccccc1C#N (stereo not drawn) = -12.1
• O=S(=O)(NCCN1CCOCC1)c1cncc(Cl)c1 = 4.99

###

- method.summary: Human HepG2 cell viability assay in 384 well format
- Format: toxicity, cell-based
- Design: dose 125 nL, time 70.5 hour; concentration not given beside the values
- study.conditions: HepG2 cells, read-out: Inhibition
Some compounds, each annotated with its measured cytotoxicity at 70.5 h.
assay.readout: cytotoxicity at 70.5 h (%)

* NC(=O)c1ccc(N2CCCCC2)c(NC(=O)c2ccc(Br)cc2)c1 | -4.44
* COc1ccc(C(C)NCc2nnc(C)s2)cc1F (stereo not given) | -2.29
* Clc1ccc(C2(NCc3noc(C4CC4)n3)CCCC2)cc1 | -0.425
* CCOCC1CN(Cc2cnn(C)c2)Cc2nn(CC3CC3)cc21 (stereo not given) | -10.4
* Nc1ncc(C(=O)N2CCC(O)(CO)CC2)c(-c2ccccc2)n1 | -15.6
* Cc1nc(CN2CCc3ncnc(-c4ccncc4)c3CC2)cs1 | 20
* c1ccc(CO[C@H]2CO[C@@]3(CCCN(Cc4ccncc4)C3)C2)nc1 | -16.2
* CNC(=O)c1cccc(CNC(C)c2cc(Cl)ccc2OC)c1 (stereo not given) | -2.03
* Cc1noc(C)c1CCC(=O)N1CCN(CCn2cncn2)CC1 | -1.34
* OCc1cc2ccccc2nc1NC1CC=CC1 | -5.4
* CSc1ccccc1C(=O)NCCCN1CCc2ccccc2C1 | -5.68
* Cc1ccoc1C(=O)N1C[C@@H](N2CCN(C)CC2)[C@H]2OCCC[C@H]21 | -4.64
* CC(C)N1CCc2c(C#N)c(NCc3ccco3)n3cnnc3c2C1 | -10.3
* CCn1cc(C2=CCN(CCCOc3ccccc3)CC2)cn1 | 0.137
* c1cncc(-c2noc(CN3CCCC3Cn3cccn3)n2)c1 (stereo not given) | -3.02
* COC(=O)CN(Cc1ccccc1C)C(=O)CCCNC(=O)C1CC1 | 10.1
* Cc1nc(C)n(Cc2cccc(NC3CCN(C)C3=O)c2)n1 (stereo not given) | -10.6
* O=C(NCc1ccco1)[C@H]1COC[C@H]2CN(Cc3ccoc3)C[C@H]21 | 13.6
* O=C(NCC1CC(=O)N(CCc2ccccc2)C1)c1c(F)cccc1F (stereo not given) | 3.42
* CC(NC(=O)COc1ccccc1C(=O)O)c1ccc(F)cc1 (stereo not given) | -9.45
* COc1ccc(-c2cnc(N)nc2C2CCCNC2)cc1 (stereo not given) | 0.112
* Cc1nc2c(c(N3CCC(CN4CCCC4=O)CC3)n1)CCNCC2 | -5.86
* Cc1nn(C)c(=O)c2nn(-c3ccc(Cl)cc3)c(C)c12 | -1.68
* CCC(CC)N(Cc1cc(=O)n(C)c(=O)n1C)C1CC1 | 5.26
* Cc1cc(CNC(=O)Nc2ccc(C(=O)NC3CC3)cc2)no1 | -14.3
